B1: TPR t1 (parent)
chain: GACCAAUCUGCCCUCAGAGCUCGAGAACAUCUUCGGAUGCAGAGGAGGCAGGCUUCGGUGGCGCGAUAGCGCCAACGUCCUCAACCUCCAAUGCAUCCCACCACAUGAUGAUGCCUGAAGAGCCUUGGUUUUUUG

Variants of: B1
assay-overview: polymerase ribozyme fitness, log enrichment relative to wild type (log ratio); higher = more active; in vitro selection for triplet polymerase activity
Decision: polymerase ribozyme fitness (log ratio) >= -3 yields True, all other cases yield False.

G19U C56A G113C : False
C3U C11A G47A U87G : True
G17U A24G U32C G61C G117C : False
U21A G57C G120A : True
A2U C64U C89G : False
U38G A43U G48U C88G : False
C20G G117C : False
C3A U130A : True
C12U C72A C80U : True

The origin of these recorded values is the RNAGym collection of RNA variant scans (doi:10.1073/pnas.2313332121).
